Items are presented alongside their recorded pIC50.
Biological target: HA-GST-Rheb (GTP-γ-S loaded) activating mTORC1 (Homo sapiens (Human))
Sequence (Q15382 1-181): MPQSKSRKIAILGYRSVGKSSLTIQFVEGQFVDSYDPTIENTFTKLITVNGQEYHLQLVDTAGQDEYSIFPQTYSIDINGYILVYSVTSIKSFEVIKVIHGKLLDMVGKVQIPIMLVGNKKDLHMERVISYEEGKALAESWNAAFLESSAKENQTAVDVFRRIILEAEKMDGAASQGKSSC
Experiment: Rheb-dependent in vitro kinase assay (Rheb-IVK; LanthaScreen or Western readout)
Format: biochemical
Settings: Rheb-dependent in vitro kinase assay; read-out: IVK IC50
pIC50: −log10 of the molar value.

compound | pIC50
CN1CCN(c2ccc(NC(=O)c3cc4c(Sc5ccc(Cl)cc5Cl)cc(Cl)cc4[nH]3)cc2Cl)CC1 | > 5.00
OCc1nc2c(OC[C@H]3CCCC[C@H]3O)c(Cl)c(Cl)cc2[nH]1 (racemic) [I-394] | 4.00 to 5.00
Cn1c(CO)cc2c(Oc3ccccc3)cccc21 | < 4.00
Clc1ccc(Sc2cccc3[nH]ccc23)cc1 | 4.00 to 5.00
CC(=O)c1cc2c(Oc3ccccc3)cc(Cl)cc2[nH]1 | < 4.00
OCc1nc2cc(OCc3ccccc3F)c(Cl)cc2[nH]1 | < 4.00
CCCn1c(CO)nc2cc(OCc3ccccc3)c(Cl)cc21 | < 4.00
Clc1cc2nc(-c3ccncc3)[nH]c2cc1Cl | 4.00 to 5.00
OCc1nc2cc(Cl)c(OCCc3ccc(Cl)cc3)cc2[nH]1 | 4.00 to 5.00
OCc1cc2c(Br)cc(OCCCc3ccccc3)cc2[nH]1 | 4.00 to 5.00
OCc1nc2c(OCc3ccccc3)cc(Cl)cc2[nH]1 | < 4.00
CN1CCC(CCNC(=O)c2cc3c(Sc4ccc(Cl)cc4Cl)cc(Cl)cc3[nH]2)CC1 | > 5.00
Cn1ccc2c(Sc3ccc(Cl)cc3)cccc21 | < 4.00
CCn1c(CO)nc2cc(OCc3ccccc3F)c(Cl)cc21 | < 4.00
NCc1cc2c(Oc3ccccc3)cc(Cl)cc2[nH]1 | 4.00 to 5.00
CCn1c(CO)nc2cc(OCc3cccc(Cl)c3)c(Cl)cc21 | < 4.00
Clc1cc2nc(-c3ccc(-c4nn[nH]n4)cc3)[nH]c2cc1Cl | < 4.00
CCn1c(CO)nc2cc(Cl)c(Oc3ccccc3)cc21 | < 4.00
Clc1cccc(Oc2cccc3[nH]ccc23)c1Cl | 4.00 to 5.00
Cn1ccc2c(Oc3ccccc3Cl)cccc21 | < 4.00
Cc1c(-c2ccc(Cn3c(C(=O)O)cc4c(Sc5ccc(Cl)cc5Cl)cc(Cl)cc43)cc2)cnn1C | > 5.00
CN(C)C(=O)c1ccc(Cn2c(-c3nn[nH]n3)cc3c(Br)cc(Sc4ccc(Cl)c(Cl)c4)cc32)cc1 | < 5.52
Clc1ccc(Sc2cc(Cl)cc3[nH]c(-c4ccnc5[nH]ccc45)nc23)cc1 | 4.00 to 5.00
OCc1nc2cc(OCc3ccc(Cl)cc3)c(Cl)c(Cl)c2[nH]1 | > 5.00
CN(C)C(=O)c1ccc(Cn2c(C(=O)O)cc3c(Br)cc(SCCc4ccc(Cl)c(Cl)c4)cc32)cc1 | > 5.00
OCc1cc2c(C3CCCCC3)cc(Oc3ccccc3)cc2[nH]1 | < 4.00
OCc1cc2c(OCc3cccc(Cl)c3)cc(Cl)cc2[nH]1 | 4.00 to 5.00
O=C(O)c1cc2c(Cl)cc(-c3cc(Cl)cc(Cl)c3)cc2[nH]1 | 4.00 to 5.00
Nc1nonc1-c1nc2cc(Cl)c(Cl)cc2n1Cc1ccc(-c2nn[nH]n2)cc1 | 4.00 to 5.00
O=C(NCC1CCN(Cc2ccccc2)C1)c1cc2c(Sc3ccc(Cl)cc3)cc(Cl)cc2[nH]1 (stereo not drawn) | < 4.00
OCc1cc2c(Oc3ccccc3Cl)cc(Cl)cc2[nH]1 | 4.00 to 5.00
O=S(=O)(c1ccccc1Cl)c1cccc2[nH]ccc12 | < 4.00
O=[N+]([O-])c1ccc(COc2cc3nc(CO)[nH]c3c(Cl)c2Cl)cc1 | 4.00 to 5.00
CN1CCC(NC(=O)c2cc3c(Sc4ccc(Cl)cc4)cc(Cl)cc3[nH]2)C1 (stereo not drawn) | > 5.00
Clc1ccc(Sc2cc(Sc3ccc(Cl)cc3)c3cc[nH]c3c2)cc1 | < 4.00
CNC(=O)c1ccc(Sc2cccc3[nH]ccc23)cc1 | < 4.00
OCc1nc2cc(Cl)c(OCc3ccccc3)cc2n1Cc1ccccc1 | < 4.00
OCc1cc2cc(SCc3ccc(Cl)cc3)c(Cl)cc2[nH]1 | 4.00 to 5.00
Cc1ccc(Oc2cc(Cl)cc3[nH]c(C(=O)O)cc23)cc1C(F)(F)F | 4.00 to 5.00
